Cited source for all entries: paper PMC7587356

targetOrTestSystem: SARS-CoV-2 3CLpro (Severe acute respiratory syndrome coronavirus 2, UniProt P0DTD1)
protocolSummary: biochemical
Format: biochemical
Design: unit not given here
particulars: sheet LOPAC_screen_w_protease; primary screen with protease, compound at 5 µM; replicate 1
readoutName: Replicate_1

>  <molecule>
CC(C)NNC(=O)c1ccncc1.O=P(O)(O)O [Iproniazid phosphate]

>  <reported>
1.295

$$$$

Item: COC(=O)C1=C(C)NC(C)=C([N+](=O)[O-])C1c1ccccc1C(F)(F)F (racemic) [(±)-Bay K 8644] | Replicate_1: 2.534

# Replicate_1 of Cl.NCCC[C@](N)(C(=O)O)C(F)F (racemic) = 3.2986

The molecule "Cl.Fc1ccc(C(OCCCc2c[nH]cn2)c2ccc(F)cc2)cc1" showed Replicate_1 equal to 1.774

Quick note, Replicate_1 for "CNc1ncnc2c1ncn2[C@@H]1O[C@H](CO)[C@@H](O)[C@H]1O" landed at 2.994

====

targetOrTestSystem: SARS-CoV-2 3CLpro (Severe acute respiratory syndrome coronavirus 2, UniProt P0DTD1)
protocolSummary: biochemical
Format: biochemical
Set-up: unit not given here
particulars: sheet LOPAC_screen_w_protease; primary screen with protease, replicate 1
# if value of Replicate_1 reaches 3, tag criterion met; if it stays below, tag criterion not met

Answered cases to consult:
>  <compound>
C[N+]1(C)CCC(OC(=O)C(c2ccccc2)c2ccccc2)CC1.[I-] [4-DAMP methiodide]

>  <group>
criterion not met

$$$$
>  <compound>
Nc1ccc(N2C(=O)c3ccccc3C2=O)c(Cl)c1 [N-(4-Amino-2-chlorophenyl)phthalimide]

>  <group>
criterion not met

$$$$
>  <compound>
C#CC(N)CCC(=O)O (stereo not shown) [gamma-Acetylinic GABA]

>  <group>
criterion not met

$$$$
>  <compound>
Cc1ccc(O)c(N=Nc2ccccc2)n1 [SIB 1757]

>  <group>
criterion met

$$$$
>  <compound>
O=c1[nH]c2cc(Cl)ccc2c(O)c1-c1cccc(Oc2ccccc2)c1 [L-701,324]

>  <group>
criterion not met

$$$$

Decide: Replicate_1 of NCC(CC(=O)O)c1ccc(Cl)cc1 (racemic) [(±)-Baclofen] >= 3?
criterion not met

State whether the measured Replicate_1 reaches 3, counting equality as reaching it, for CCCn1c(=O)[nH]c(=O)c2nc[nH]c21 [3-n-Propylxanthine]
criterion not met

Answer whether Replicate_1 of Clc1cnc(Oc2ccc(Oc3ncc(Cl)cc3Cl)cc2)c(Cl)c1 [TCPOBOP] is greater than or equal to 3.
criterion met

====

Parameter: Replicate_2 (LOPAC screen with protease). Scope: all listed entries.
targetOrTestSystem: UniProt P0DTD1
protocolSummary: biochemical
Format: biochemical
particulars: sheet LOPAC_screen_w_protease; primary screen at 5 µM; replicate 2

Per the records, this molecule ( CC(Cc1ccc(O)c(O)c1)C(C)Cc1ccc(O)c(O)c1 (centres unmarked) ) has Replicate_2 (LOPAC screen with protease) equal to 98.0511

====

targetOrTestSystem: SARS-CoV-2 3CLpro (Severe acute respiratory syndrome coronavirus 2, UniProt P0DTD1)
protocolSummary: biochemical
Type: biochemical
particulars: 4 h, sheet LOPAC_screen_w_protease; LOPAC1280 primary screen with protease, 5 µM compound; mean of the two replicates; read-out: mean
Counter-ions that a name gives are not always drawn.
The following molecules are listed with their measured inhibition at 5 µM values.
State the value with its unit after it.

Take a look at these entries with their results.
>  <molecule>
NC(=O)C(=O)O [Sodium Oxamate]

>  <targetOrTestSystem>
SARS-CoV-2 3CLpro (Severe acute respiratory syndrome coronavirus 2, UniProt P0DTD1)

>  <inhibition at 5 µM>
4.58%

$$$$
>  <molecule>
Cn1cnc2c(NCc3ccccc3)nc(NCCO)nc21

>  <targetOrTestSystem>
SARS-CoV-2 3CLpro (Severe acute respiratory syndrome coronavirus 2, UniProt P0DTD1)

>  <inhibition at 5 µM>
4.92%

$$$$
>  <molecule>
CC(=O)[C@H]1CC[C@H]2[C@@H]3CCC4=CC(=O)CC[C@]4(C)[C@H]3CC[C@]12C

>  <targetOrTestSystem>
SARS-CoV-2 3CLpro (Severe acute respiratory syndrome coronavirus 2, UniProt P0DTD1)

>  <inhibition at 5 µM>
5.55%

$$$$
>  <molecule>
Cc1cc(C(C)(C)C)c(O)c(C)c1CC1=NCCN1 [Oxymetazoline hydrochloride]

>  <targetOrTestSystem>
SARS-CoV-2 3CLpro (Severe acute respiratory syndrome coronavirus 2, UniProt P0DTD1)

>  <inhibition at 5 µM>
5.36%

$$$$
>  <molecule>
CC1COc2c(N3CCN(C)CC3)c(F)cc3c(=O)c(C(=O)O)cn1c23 (stereo not drawn)

>  <targetOrTestSystem>
SARS-CoV-2 3CLpro (Severe acute respiratory syndrome coronavirus 2, UniProt P0DTD1)

>  <inhibition at 5 µM>
6.37%

$$$$
>  <molecule>
CC#C[C@]1(O)CC[C@H]2[C@@H]3CCC4=CC(=O)CCC4=C3[C@@H](c3ccc(N(C)C)cc3)C[C@@]21C

>  <targetOrTestSystem>
SARS-CoV-2 3CLpro (Severe acute respiratory syndrome coronavirus 2, UniProt P0DTD1)

>  <inhibition at 5 µM>
4.62%

$$$$
>  <molecule>
CSc1ccc2c(c1)C(N1CCN(C)CC1)Cc1ccccc1S2 (stereo not drawn) [Methiothepin mesylate]

>  <targetOrTestSystem>
SARS-CoV-2 3CLpro (Severe acute respiratory syndrome coronavirus 2, UniProt P0DTD1)

>  <inhibition at 5 µM>
4.09%

$$$$
>  <molecule>
C=C/C(C)=C/[C@@]1(C)SC(=O)C(C)=C1O

>  <targetOrTestSystem>
SARS-CoV-2 3CLpro (Severe acute respiratory syndrome coronavirus 2, UniProt P0DTD1)

>  <inhibition at 5 µM>
4.16%

$$$$

Let us move to another entry and its inhibition at 5 µM.
inhibition at 5 µM on SARS-CoV-2 3CLpro (Severe acute respiratory syndrome coronavirus 2, UniProt P0DTD1) for CCCN(CCC)C(=O)C(CCC(=O)O)NC(=O)c1ccccc1 (stereo not drawn) [Proglumide] is 4.27%

====

targetOrTestSystem: SARS-CoV-2 3CLpro (Severe acute respiratory syndrome coronavirus 2, UniProt P0DTD1)
protocolSummary: biochemical
Type: biochemical
particulars: LOPAC1280 primary screen with protease, 5 µM compound, replicate 1
readoutName: Replicate_1 (LOPAC_screen_w_protease)

Before answering, review these 4 worked examples.
>  <molecule>
CC1CCCC=CC2CC(O)CC2C(O)C=CC(=O)O1 (stereo not drawn)

>  <Replicate_1 (LOPAC_screen_w_protease)>
0.7493

$$$$
>  <molecule>
CCCCC/C=C\C[C@@H](O)/C=C/c1cccc(C[C@@H](O)CCCCO)n1

>  <Replicate_1 (LOPAC_screen_w_protease)>
0.07831

$$$$
>  <molecule>
CCCCOc1cc(CC2CNC(=O)N2)ccc1OC (stereo not drawn)

>  <Replicate_1 (LOPAC_screen_w_protease)>
0.9131

$$$$
>  <molecule>
C[N+](C)(C)CCCCCC[N+](C)(C)C.[Cl-].[Cl-] [Hexamethonium dichloride]

>  <Replicate_1 (LOPAC_screen_w_protease)>
3.928

$$$$

Now take the following molecule into account.
The reported value for "Cc1c(CC(C)(C)C(=O)O)n(Cc2ccc(Cl)cc2)c2ccc(F)cc12" in terms of Replicate_1 (LOPAC_screen_w_protease) is 2.414

====

targetOrTestSystem: SARS-CoV-2 3CLpro (Severe acute respiratory syndrome coronavirus 2)
protocolSummary: biochemical
Format: biochemical
particulars: 4 h, sheet LOPAC_screen_w_protease; LOPAC1280 at 5 µM; replicate 2; read-out: Replicate_2
Listed here: items and their measured inhibition at 5 µM.
Please respond with the number in % and leave the unit unwritten.

>  <compound>
C=C[C@@]1(C)CC(=O)[C@]2(O)[C@@]3(C)[C@@H](O)CCC(C)(C)[C@@H]3[C@H](O)[C@H](OC(C)=O)[C@@]2(C)O1

>  <unitDescriptor>
%

>  <inhibition at 5 µM>
0.734

$$$$
>  <compound>
CC(C)(C)NCC(O)c1ccc(O)c(CO)c1 (stereo not shown)

>  <unitDescriptor>
%

>  <inhibition at 5 µM>
1.1

$$$$
>  <compound>
NS(=O)(=O)c1cc2c(cc1Cl)N=CNS2(=O)=O [Chlorothiazide]

>  <unitDescriptor>
%

>  <inhibition at 5 µM>
0.17

$$$$

// next entry
For reference, reported inhibition at 5 µM for O=C(NCC1CCCCN1)c1cc(OCC(F)(F)F)ccc1OCC(F)(F)F (stereo not shown) [Flecainide acetate] stands at -0.814

====

targetOrTestSystem: SARS-CoV-2 3CLpro (Severe acute respiratory syndrome coronavirus 2, UniProt P0DTD1)
protocolSummary: biochemical
Assay type: biochemical
particulars: LOPAC1280 primary screen with protease, 5 µM compound, replicate 1
readoutName: Replicate_1 (LOPAC_screen_w_protease)

>  <compound>
NC(CO)(CO)CO.O=C(c1ccccc1)c1ccc2n1CCC2C(=O)O (stereo not drawn) [Ketorolac tris salt]

>  <Replicate_1 (LOPAC_screen_w_protease)>
1.974

$$$$

Reported Replicate_1 (LOPAC_screen_w_protease) for "CN(C)c1cc2c(Nc3ccc4c(cnn4Cc4ccccc4)c3)ncnc2cn1" was 2.805

Lab book: Replicate_1 (LOPAC_screen_w_protease) of "NCCCC(=O)O" noted as 1.648

Sure, the documented Replicate_1 (LOPAC_screen_w_protease) for "CCCCCCCC/C=C\CCCCCCCC(=O)NCCc1ccc(O)c(O)c1" is 0.1379

Field Replicate_1 (LOPAC_screen_w_protease) (entry "N[C@@H](CS(=O)O)C(=O)O" ) reads 1.739

# Replicate_1 (LOPAC_screen_w_protease) of NC/C=C/C(=O)O [(E)-4-amino-2-butenoic acid] = 1.878

compound COc1cccc(OC)c1OCCNCC1COc2ccccc2O1.Cl (stereo not drawn) [WB-4101 hydrochloride] , Replicate_1 (LOPAC_screen_w_protease) observed: 1.824

Sample Cl.Clc1ccc(N2CCN(Cc3c[nH]c4ncccc34)CC2)cc1 [L-745,870 hydrochloride] ; Replicate_1 (LOPAC_screen_w_protease) observed: 2.129

Measured Replicate_1 (LOPAC_screen_w_protease), Cc1cn([C@H]2C=C[C@@H](CO)O2)c(=O)[nH]c1=O [2',3'-didehydro-3'-deoxythymidine] : 2.073
